In this section, each of the molecules is paired with its reported cell viability.
- System: SEM cells
- PROTOCOL_DESCRIPTION: cell viability relative to DMSO control; higher = less cytotoxic
- CONDITIONS_USED: RPMI 5 mM glucose + 10% dialyzed FBS; 48 h; 0.19 µM
Only the number, expressed in %, is required.

COc1cc(OC2CCN(C)CC2)ccc1Nc1ncc2c(n1)n(C1CCCC1)c(=O)n2C
96.1

Query: So what's the measured cell viability for this one? CC(C)OC(=O)/C1=C/N(CC(C)(C)C2=C1[NH]C3=CC=CC=C23)C(=O)C4=CC=C(F)C(=C4)F
Result: 89

Query: Try the molecule CC(C)c1noc(N2CCC(COc3ccc(-c4ccc([S+](C)(=O)[O-])cc4)nc3)CC2)n1
Result: 28.8

Query: And for CN[C@@H]1[C@@H](O)[C@@H](O[C@@H]2[C@@H](O)[C@H](O[C@H]3O[C@H](CN)[C@@H](O)[C@H](O)[C@H]3O)[C@@H](N)C[C@H]2NC(=O)[C@@H](O)CN)OC[C@]1(C)O ?
Result: 115

Query: Please do the same for C[C@@H]1COCCN1c1cc(C2([S@+](C)(=N)[O-])CC2)nc(-c2ccnc3[nH]ccc23)n1 as well.
Result: 102

Query: Please give the result for COC(c1ccccc1)(c1ccccc1)[C@H](Oc1nc(C)cc(C)n1)C(=O)O too.
Result: 160

Data credit: the supplement of paper PMC11451515
